Data origin: the supplement of paper PMC4862054

test system: HCC1937; assay: drug sensitivity score (DSS), CellTiter-Blue viability (DSS (AUC-based score)); higher = stronger viability inhibition; extreme values may be limits of the assay; settings: incubation time: 72 h
Items are presented alongside their recorded drug sensitivity score.
The response must contain the number and no unit.

Illustrative cases are given below, each with its answer.
Nc1nc2[nH]cnc2c(=S)[nH]1 : 3.55
CC[C@@H]1C(=O)OC[C@@H]1Cc1cncn1C : 0
CC(C)(C)c1cnc(CSc2cnc(NC(=O)C3CCNCC3)s2)o1 : 20.4

Shifting focus to the compound that follows.
Q: Quick one: drug sensitivity score for `CC1=C2C[C@H]3[C@@H](CC=C4C[C@@H](O)CC[C@@]43C)[C@@H]2CC[C@]12O[C@@H]1C[C@H](C)CN[C@H]1[C@H]2C` ?
Result: 0
